System: isolated rat brain mitochondria
protocol details: Neurotoxicity: MDA production in brain mitochondria, substances applied alone
Format: cell-based
experimental setup: 50 µM applied alone, compared to control
Doc: threshold 60% (exclusive). Items with increase of MDA production beneath it return class 1; others return class 0.

CCOC(=O)c1cc(-c2ccc(Br)cc2)n(CC(=O)NN=Cc2ccc(N(C)C)cc2)c1C [7a] :: class 0
CCOC(=O)c1cc(-c2ccc(Br)cc2)n(CC(=O)NN=Cc2cc(OC)c(O)c(OC)c2)c1C [7d] :: class 1
CCOC(=O)c1cc(-c2ccc(Br)cc2)n(CCC(=O)NN=Cc2cc(OC)c(O)c(OC)c2)c1C [8d] :: class 1
CCOC(=O)c1cc(-c2ccc(Br)cc2)n(CC(=O)NN=Cc2ccc([N+](=O)[O-])cc2)c1C [7c] :: class 1
CCOC(=O)c1cc(-c2ccc(Br)cc2)n(CC(=O)NN=Cc2ccc(Cl)cc2)c1C [7b] :: class 1
CCOC(=O)c1cc(-c2ccc(Br)cc2)n(CCC(=O)NN=Cc2ccc(Cl)cc2)c1C [8b] :: class 1
CCOC(=O)c1cc(-c2ccc(Br)cc2)n(CCC(=O)NN=Cc2ccc(OC)cc2OC)c1C [8e] :: class 0
CCOC(=O)c1cc(-c2ccc(Br)cc2)n(CC(=O)NN=Cc2ccc(OC)cc2OC)c1C [7e] :: class 1
CCOC(=O)c1cc(-c2ccc(Br)cc2)n(CCC(=O)NN=Cc2ccc([N+](=O)[O-])cc2)c1C [8c] :: class 0
